Consider the following compounds; for each one, report its Intensity Outside with Dye 3.
# assayedSystem: FUS-SNAP condensates (Homo sapiens, UniProt P35637)
# Sequence (P35637 1-526): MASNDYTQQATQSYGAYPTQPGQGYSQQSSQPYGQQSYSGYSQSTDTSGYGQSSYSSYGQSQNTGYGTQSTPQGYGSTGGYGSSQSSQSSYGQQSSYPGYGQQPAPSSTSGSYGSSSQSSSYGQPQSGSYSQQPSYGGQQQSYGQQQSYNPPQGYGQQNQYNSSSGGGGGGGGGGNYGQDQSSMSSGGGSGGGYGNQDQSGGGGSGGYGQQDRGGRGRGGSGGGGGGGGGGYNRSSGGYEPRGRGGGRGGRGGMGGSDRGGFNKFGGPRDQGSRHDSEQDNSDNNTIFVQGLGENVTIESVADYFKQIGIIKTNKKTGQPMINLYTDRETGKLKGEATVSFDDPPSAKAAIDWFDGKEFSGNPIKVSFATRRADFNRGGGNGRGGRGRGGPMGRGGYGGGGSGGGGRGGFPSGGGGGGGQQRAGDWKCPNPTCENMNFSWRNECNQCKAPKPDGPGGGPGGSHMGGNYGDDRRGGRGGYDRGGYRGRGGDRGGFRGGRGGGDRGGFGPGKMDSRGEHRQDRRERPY
# assayProtocol: Fluorescence imaging of dye partitioning in FUS-SNAP condensates (I-in, I-out)
# Type: physicochemical
# experimentalSetup: outside FUS-SNAP condensate; 10 μM dye, 5 μM protein; image 3; one day of experiments
Counter-ions that a name gives are not always drawn.

Identify measured Intensity Outside with Dye 3 obtained with FUS-SNAP condensates (Homo sapiens, UniProt P35637) for "O=C1OC2(c3ccc(O)cc3Oc3cc(O)ccc32)c2ccccc21" .
3742.7

Identify measured Intensity Outside with Dye 3 obtained with FUS-SNAP condensates (Homo sapiens, UniProt P35637) for O=C1OC2(c3ccc(O[C@@H]4O[C@H](CO)[C@H](O)[C@H](O)[C@H]4O)cc3Oc3cc(O[C@@H]4O[C@H](CO)[C@H](O)[C@H](O)[C@H]4O)ccc32)c2ccccc21 [Dye 12, Fluorescein di(β-D-galacto-pyranoside)] .
152.9

Identify measured Intensity Outside with Dye 3 obtained with FUS-SNAP condensates (Homo sapiens, UniProt P35637) for "COC(=O)c1ccccc1-c1c2ccc(=N)cc-2oc2cc(N)ccc12.Cl" .
2335.1

Identify measured Intensity Outside with Dye 3 obtained with FUS-SNAP condensates (Homo sapiens, UniProt P35637) for "N=C(N)c1ccc(-c2cc3ccc(C(=N)N)cc3[nH]2)cc1" .
218.7

Identify measured Intensity Outside with Dye 3 obtained with FUS-SNAP condensates (Homo sapiens, UniProt P35637) for O=C(CCCC[C@@H]1SCC2NC(=O)NC21)NCCNC(=O)c1ccc(-c2c3ccc(=O)cc-3oc3ccc(O)cc23)c(C(=O)O)c1 (some centres unmarked) .
2195.6

Identify measured Intensity Outside with Dye 3 obtained with FUS-SNAP condensates (Homo sapiens, UniProt P35637) for "O=C(O)c1cc2cc3c4c(c2oc1=O)CCCN4CCC3" .
1479.6

Identify measured Intensity Outside with Dye 3 obtained with FUS-SNAP condensates (Homo sapiens, UniProt P35637) for O=c1cc(C(F)(F)F)c2ccc(O)cc2o1 [Dye 2, 7-Hydroxy-4-(trifluoromethyl)-coumarin] .
232.0

Identify measured Intensity Outside with Dye 3 obtained with FUS-SNAP condensates (Homo sapiens, UniProt P35637) for "N#CC1=c2cc3c4c(c2Oc2c1cc1c5c2CCCN5CCC1)CCC[N+]=4CCC3" .
2224.3

Identify measured Intensity Outside with Dye 3 obtained with FUS-SNAP condensates (Homo sapiens, UniProt P35637) for O=C([O-])c1ccccc1C1=c2cc3c4c(c2Oc2c1cc1c5c2CCCN5CCC1)CCC[N+]=4CCC3 [Dye 17, Rhodamine 101 inner salt] .
887.5

Identify measured Intensity Outside with Dye 3 obtained with FUS-SNAP condensates (Homo sapiens, UniProt P35637) for "CC(=O)c1cc2cc3c4c(c2oc1=O)CCCN4CCC3" .
5078.2

Identify measured Intensity Outside with Dye 3 obtained with FUS-SNAP condensates (Homo sapiens, UniProt P35637) for "CCN(CC)c1ccc2c(-c3ccccc3C(=O)O)c3ccc(=[N+](CC)CC)cc-3oc2c1" .
565.6

Identify measured Intensity Outside with Dye 3 obtained with FUS-SNAP condensates (Homo sapiens, UniProt P35637) for CC(=O)N[C@H]1[C@H](Oc2ccc3c(c2)Oc2cc(O)ccc2C32OC(=O)c3ccccc32)O[C@H](CO)[C@H](O)[C@@H]1O (some centres unmarked) .
1191.0

Identify measured Intensity Outside with Dye 3 obtained with FUS-SNAP condensates (Homo sapiens, UniProt P35637) for "CC/N=c1/cc2oc3cc(NCC)c(C)cc3c(-c3ccccc3C(=O)NCCOCCOCCN)c-2cc1C.O=C(O)C(F)(F)F" .
532.7

Identify measured Intensity Outside with Dye 3 obtained with FUS-SNAP condensates (Homo sapiens, UniProt P35637) for CC(=O)Oc1ccc2c(c1)Oc1cc(OC(C)=O)ccc1C21OC(=O)c2ccccc21 [Dye 9, Fluorescein diacetate] .
1552.6
